MEASURED TARGET: C4-2
EXPERIMENTAL DETAILS: flow cytometry; C4-2 cells; apparent Kd
No end group written: not given here.
REPORTED METRIC: pKd
Please keep in mind that pKd is minus log10 of the molar concentration; only the number is needed.

TGHLYPTRMEIQ (also: FAM label, position not given here) [TGH] :: 4.36

Q: Note down pKd recorded for HSDNHYRPADKL (also: FAM label, position not given here) [HSD]
Ans: 4.51

Q: Identify pKd associated with the binder YVNSHSILGYTG (also: FAM label, position not given here) [YVN]
Ans: 5.01
